Recorded IC50 values for a group of compounds are listed next.
- Test system: Tyk2 (Homo sapiens)
- Sequence (P29597 whole entry): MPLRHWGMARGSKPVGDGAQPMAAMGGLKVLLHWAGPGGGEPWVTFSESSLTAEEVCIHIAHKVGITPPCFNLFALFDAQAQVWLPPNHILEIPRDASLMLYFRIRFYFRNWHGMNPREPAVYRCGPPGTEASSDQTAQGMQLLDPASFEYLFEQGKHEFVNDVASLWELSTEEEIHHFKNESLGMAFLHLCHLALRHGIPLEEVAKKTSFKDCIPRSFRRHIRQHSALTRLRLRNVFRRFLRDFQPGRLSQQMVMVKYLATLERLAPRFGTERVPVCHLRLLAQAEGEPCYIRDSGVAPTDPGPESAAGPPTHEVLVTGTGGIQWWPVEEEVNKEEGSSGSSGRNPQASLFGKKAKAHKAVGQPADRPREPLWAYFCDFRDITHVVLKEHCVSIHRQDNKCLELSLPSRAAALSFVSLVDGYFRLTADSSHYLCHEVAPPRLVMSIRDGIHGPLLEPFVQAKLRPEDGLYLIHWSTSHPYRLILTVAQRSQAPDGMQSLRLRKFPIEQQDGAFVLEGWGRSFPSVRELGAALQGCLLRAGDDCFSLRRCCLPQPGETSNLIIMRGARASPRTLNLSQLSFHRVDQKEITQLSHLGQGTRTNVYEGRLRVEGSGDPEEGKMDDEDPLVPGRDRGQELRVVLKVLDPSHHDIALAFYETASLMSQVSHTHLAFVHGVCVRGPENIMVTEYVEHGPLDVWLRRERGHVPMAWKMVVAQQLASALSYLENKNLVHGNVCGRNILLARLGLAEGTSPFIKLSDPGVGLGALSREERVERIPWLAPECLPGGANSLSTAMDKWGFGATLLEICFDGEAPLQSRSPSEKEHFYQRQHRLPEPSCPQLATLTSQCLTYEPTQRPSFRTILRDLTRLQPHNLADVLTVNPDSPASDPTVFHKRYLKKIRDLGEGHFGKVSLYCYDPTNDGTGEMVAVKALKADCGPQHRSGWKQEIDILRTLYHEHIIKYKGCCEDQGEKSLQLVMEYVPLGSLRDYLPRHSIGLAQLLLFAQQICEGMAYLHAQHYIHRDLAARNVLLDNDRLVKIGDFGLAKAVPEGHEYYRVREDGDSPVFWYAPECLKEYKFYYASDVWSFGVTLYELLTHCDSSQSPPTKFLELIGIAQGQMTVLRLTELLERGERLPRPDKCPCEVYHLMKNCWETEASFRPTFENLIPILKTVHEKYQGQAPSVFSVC
- Measurement notes: JAK kinase inhibition assay (EZ Reader, peptide substrate phosphorylation) - Tyk2
- Type: biochemical
- Assay context: Tyk2 kinase 1 nM; 8 concentration points, max 10 μM

What IC50 value was documented for this compound, CC(=O)N1CCN(Cc2ccc(-c3ccnc(Nc4cnn(C)c4)n3)cc2)CC1 ?
1 to 10 µM

---

Recorded IC50 values for a group of compounds are listed next.
- Test system: Tyk2 (Homo sapiens)
- Measurement notes: JAK kinase inhibition assay (EZ Reader, peptide substrate phosphorylation) - Tyk2
- Type: biochemical
- Assay context: Tyk2 kinase 1 nM; 8 concentration points, max 10 μM

Examples from the recorded data:
1. Cn1cc(Nc2nccc(-c3ccc(C(=O)NC4CC4(F)F)nc3)n2)cn1 (centres unmarked) : 1 to 10 µM
2. Cn1cc(Nc2nccc(-c3ccc(NC(=O)C4(F)CC4)nc3)n2)cn1 : 0.1 to 1 µM
3. Cn1cc(Nc2nccc(-c3ccnc(NC(=O)C4CC4)c3)n2)cn1 : ≥ 10 µM
4. Cn1cc(Nc2nccc(-c3ccc(NC(=O)C4CC4)c4[nH]ncc34)n2)cn1 : 0.1 to 1 µM
5. CCS(=O)(=O)Nc1ncc(-c2ccnc(Nc3cnn(C)c3)n2)cn1 : ≥ 10 µM

What IC50 value was documented for this compound, Cn1cc(Nc2nccc(-c3ccc(NC(=O)CC4CC4)c4[nH]ncc34)n2)cn1 ?
0.1 to 1 µM

What IC50 value was documented for this compound, Cn1cc(Nc2nccc(-c3ccc(C(=O)NC4CC4)cc3)n2)cn1 ?
1 to 10 µM

What IC50 value was documented for this compound, Cn1cc(Nc2nccc(-c3ccc(NC(=O)C4(F)CC4)cc3)n2)cn1 ?
0.1 to 1 µM

What IC50 value was documented for this compound, Cn1cc(Nc2nccc(-c3ccc(NC(=O)C4CCC4)cc3)n2)cn1 ?
1 to 10 µM

What IC50 value was documented for this compound, Cn1cc(Nc2nccc(-c3cnc(NC(=O)C4CC4(F)F)cn3)n2)cn1 (centres unmarked) ?
1 to 10 µM

What IC50 value was documented for this compound, Cn1cc(Nc2nccc(-c3cnc(NC(=O)CC(F)(F)F)cn3)n2)cn1 ?
1 to 10 µM

---

- Test system: JAK1 (Homo sapiens, UniProt P23458)
- Sequence (P23458 whole entry): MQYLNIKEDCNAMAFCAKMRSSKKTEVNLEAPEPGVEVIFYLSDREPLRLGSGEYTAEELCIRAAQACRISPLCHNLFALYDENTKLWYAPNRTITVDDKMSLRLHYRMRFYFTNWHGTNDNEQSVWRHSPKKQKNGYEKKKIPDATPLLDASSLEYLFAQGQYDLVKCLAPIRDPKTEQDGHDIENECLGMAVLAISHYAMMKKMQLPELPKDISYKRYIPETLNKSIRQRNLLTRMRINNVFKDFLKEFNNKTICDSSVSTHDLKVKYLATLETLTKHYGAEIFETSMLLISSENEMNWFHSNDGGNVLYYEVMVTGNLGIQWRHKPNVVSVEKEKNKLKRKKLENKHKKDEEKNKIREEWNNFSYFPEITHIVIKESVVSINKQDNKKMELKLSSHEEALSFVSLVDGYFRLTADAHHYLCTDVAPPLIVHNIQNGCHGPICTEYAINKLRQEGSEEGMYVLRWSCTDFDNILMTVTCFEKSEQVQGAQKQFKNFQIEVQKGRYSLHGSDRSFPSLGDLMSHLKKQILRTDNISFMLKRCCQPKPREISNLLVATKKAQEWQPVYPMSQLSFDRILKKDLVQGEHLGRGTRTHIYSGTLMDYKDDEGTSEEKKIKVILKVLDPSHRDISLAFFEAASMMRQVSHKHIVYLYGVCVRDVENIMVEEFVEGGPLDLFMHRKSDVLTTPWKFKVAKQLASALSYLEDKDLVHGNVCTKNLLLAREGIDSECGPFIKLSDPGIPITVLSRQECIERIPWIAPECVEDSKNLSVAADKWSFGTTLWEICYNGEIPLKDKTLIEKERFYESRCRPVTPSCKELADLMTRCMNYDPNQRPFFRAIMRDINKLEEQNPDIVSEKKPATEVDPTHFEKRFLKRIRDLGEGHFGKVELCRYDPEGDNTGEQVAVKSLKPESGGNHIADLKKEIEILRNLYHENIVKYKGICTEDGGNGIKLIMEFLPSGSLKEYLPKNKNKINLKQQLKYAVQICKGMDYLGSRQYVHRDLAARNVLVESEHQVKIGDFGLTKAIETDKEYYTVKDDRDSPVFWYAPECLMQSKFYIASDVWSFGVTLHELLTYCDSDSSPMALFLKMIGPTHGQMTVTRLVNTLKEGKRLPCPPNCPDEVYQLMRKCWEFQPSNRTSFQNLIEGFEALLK
- Measurement notes: JAK kinase inhibition assay (EZ Reader, peptide substrate phosphorylation) - JAK1
- Format: biochemical
- Assay context: JAK1 kinase 20 nM; 8 concentration points, max 10 μM
Recorded IC50 values for a group of molecules are listed next.

Examples from the recorded data:
1) Cc1cc(-c2ccnc(Nc3cnn(C)c3)n2)ccc1C(=O)NCC#N [TDM-180779] : 1 to 10 µM
2) Cn1cc(Nc2nccc(-n3ccc4c(NC(=O)CC#N)cccc43)n2)cn1 [TDM-180881] : < 0.1 µM

Below: the item to evaluate.
What IC50 value was documented for this molecule, Cn1cc(Nc2nccc(-c3ccnc(NC(=O)C4CC4)c3)n2)cn1 [TDM-180773] ?
≥ 10 µM

---

Recorded IC50 values for a group of molecules are listed next.
- Test system: JAK2 (Homo sapiens)
- Sequence (O60674 whole entry): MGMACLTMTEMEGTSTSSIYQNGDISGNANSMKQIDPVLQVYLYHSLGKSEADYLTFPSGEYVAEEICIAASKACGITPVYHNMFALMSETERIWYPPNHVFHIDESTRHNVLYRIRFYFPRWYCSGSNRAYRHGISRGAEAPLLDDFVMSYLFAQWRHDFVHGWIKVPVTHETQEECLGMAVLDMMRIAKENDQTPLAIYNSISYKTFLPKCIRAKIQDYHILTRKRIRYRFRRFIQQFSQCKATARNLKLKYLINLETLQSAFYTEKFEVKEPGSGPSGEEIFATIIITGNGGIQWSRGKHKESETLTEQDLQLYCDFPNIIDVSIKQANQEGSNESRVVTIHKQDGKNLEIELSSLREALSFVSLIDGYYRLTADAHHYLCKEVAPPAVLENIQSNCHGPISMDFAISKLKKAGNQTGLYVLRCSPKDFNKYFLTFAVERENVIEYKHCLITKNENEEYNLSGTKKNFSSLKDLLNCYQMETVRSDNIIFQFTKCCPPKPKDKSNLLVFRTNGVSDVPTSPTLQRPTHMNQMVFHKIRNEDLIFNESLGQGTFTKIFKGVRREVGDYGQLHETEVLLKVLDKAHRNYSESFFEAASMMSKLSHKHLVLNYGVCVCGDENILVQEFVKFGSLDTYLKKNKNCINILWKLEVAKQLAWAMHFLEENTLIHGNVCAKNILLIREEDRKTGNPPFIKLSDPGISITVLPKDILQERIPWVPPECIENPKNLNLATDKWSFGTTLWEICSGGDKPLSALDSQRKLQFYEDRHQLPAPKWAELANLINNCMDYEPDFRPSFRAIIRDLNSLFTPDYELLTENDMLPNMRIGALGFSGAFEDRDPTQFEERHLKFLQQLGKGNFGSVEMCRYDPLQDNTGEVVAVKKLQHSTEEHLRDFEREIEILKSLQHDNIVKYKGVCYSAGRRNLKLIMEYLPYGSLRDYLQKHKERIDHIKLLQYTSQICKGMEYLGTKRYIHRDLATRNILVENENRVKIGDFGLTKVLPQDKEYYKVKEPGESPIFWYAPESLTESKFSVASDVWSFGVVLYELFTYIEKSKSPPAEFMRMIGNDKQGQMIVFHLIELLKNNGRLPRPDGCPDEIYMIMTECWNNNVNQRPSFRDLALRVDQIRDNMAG
- Measurement notes: JAK kinase inhibition assay (EZ Reader, peptide substrate phosphorylation) - JAK2
- Assay type: biochemical
- Assay context: JAK2 kinase 1 nM; 8 concentration points, max 10 μM

Examples from the recorded data:
1. Cn1cc(Nc2nccc(-c3ccc(NC(=O)CC4CC4)cc3)n2)cn1 : 0.1 to 1 µM
2. Cn1cc(Nc2nccc(-c3ccc(NC(=O)CC#N)nc3)n2)cn1 : 0.1 to 1 µM
3. Cc1cc(-c2ccnc(Nc3cnn(C)c3)n2)ccc1C(=O)NCC(F)(F)F : 1 to 10 µM
4. Cn1cc(Nc2nccc(-c3ccc(C(=O)NCC(F)(F)F)nc3)n2)cn1 : 0.1 to 1 µM

What IC50 value was documented for this molecule, Cn1cc(Nc2nccc(-c3ccc(NC(=O)C4CC4(F)F)nc3)n2)cn1 (stereo not shown) ?
< 0.1 µM

What IC50 value was documented for this molecule, C=CCS(=O)(=O)Nc1ccc(-c2ccnc(Nc3cnn(C)c3)n2)cc1 ?
0.1 to 1 µM

What IC50 value was documented for this molecule, Cn1cc(Nc2nccc(-c3ccc(C(=O)N4CCS(=O)(=O)CC4)nc3)n2)cn1 ?
1 to 10 µM
